- target.entity: cAMP and cAMP-inhibited cGMP 3',5'-cyclic phosphodiesterase 10A (Homo sapiens, UniProt Q9Y233)
- Sequence (Q9Y233 whole entry): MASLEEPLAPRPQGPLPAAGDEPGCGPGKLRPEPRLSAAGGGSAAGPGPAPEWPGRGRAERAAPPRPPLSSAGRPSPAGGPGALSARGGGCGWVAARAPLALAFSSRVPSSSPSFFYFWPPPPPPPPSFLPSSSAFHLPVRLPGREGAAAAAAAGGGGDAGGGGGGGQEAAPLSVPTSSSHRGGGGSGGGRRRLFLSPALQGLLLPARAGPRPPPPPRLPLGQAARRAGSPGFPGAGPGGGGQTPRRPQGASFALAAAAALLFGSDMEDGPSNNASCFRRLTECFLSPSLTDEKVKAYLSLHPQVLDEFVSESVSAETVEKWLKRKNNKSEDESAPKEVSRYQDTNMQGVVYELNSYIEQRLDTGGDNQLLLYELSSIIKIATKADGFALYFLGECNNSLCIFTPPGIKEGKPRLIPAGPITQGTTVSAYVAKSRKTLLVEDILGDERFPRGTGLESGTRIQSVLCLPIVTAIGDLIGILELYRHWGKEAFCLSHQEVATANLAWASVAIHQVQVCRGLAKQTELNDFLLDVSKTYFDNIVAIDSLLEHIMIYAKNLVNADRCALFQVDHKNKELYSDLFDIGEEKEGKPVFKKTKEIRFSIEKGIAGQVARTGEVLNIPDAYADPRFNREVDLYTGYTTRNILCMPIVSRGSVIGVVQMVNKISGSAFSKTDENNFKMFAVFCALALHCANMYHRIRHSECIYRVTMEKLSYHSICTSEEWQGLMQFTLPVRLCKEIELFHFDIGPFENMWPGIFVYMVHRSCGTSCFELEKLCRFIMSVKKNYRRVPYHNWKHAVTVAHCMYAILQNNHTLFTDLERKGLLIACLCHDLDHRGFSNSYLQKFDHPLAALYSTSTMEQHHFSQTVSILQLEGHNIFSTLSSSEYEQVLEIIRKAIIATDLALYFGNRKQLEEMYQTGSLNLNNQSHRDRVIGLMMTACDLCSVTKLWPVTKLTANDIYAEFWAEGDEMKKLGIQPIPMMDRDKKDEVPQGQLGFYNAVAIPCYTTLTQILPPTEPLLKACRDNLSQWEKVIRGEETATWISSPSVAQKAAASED
pIC50: −log10 of the molar value.
Listed molecules paired with reported pIC50
reported.property: pIC50

CC(=O)N1CCC(c2nccnc2O[C@H]2C[C@@H](Nc3nc4ccccc4s3)C2)CC1    8.56
Fc1cnc(O[C@H]2C[C@@H](Nc3nc4c(F)cccc4s3)C2)c(C2CCOCC2)c1    8.27
N#Cc1ccc(-c2nccnc2O[C@H]2C[C@@H](Nc3nc4ccccc4s3)C2)cn1    8.13
c1cnc(O[C@H]2C[C@@H](Nc3ccc4ccccc4n3)C2)c(C2CCOCC2)c1    8.82
O=C(c1nc2ccccc2[nH]1)[C@H]1C[C@H](Oc2ncccc2C2CCOCC2)C1    8.15

====

Listed compounds paired with reported pIC50
- target.entity: cAMP and cAMP-inhibited cGMP 3',5'-cyclic phosphodiesterase 10A (Homo sapiens, UniProt Q9Y233)
pIC50: −log10 of the molar value.
reported.property: pIC50

OCC1CCN(c2nccnc2O[C@H]2C[C@@H](Nc3ncc4ccccc4n3)C2)CC1    7.96
Clc1ccc(C2=CCOCC2)c(O[C@H]2C[C@@H](Nc3nc4ccccc4s3)C2)n1    8.45
c1cnc(O[C@H]2C[C@@H](Nc3nc4ccccc4s3)C2)c(C2CCOCC2)c1    9.12
CN1CCN(c2nccnc2O[C@H]2C[C@@H](Nc3ncc4ccccc4n3)C2)CC1    6.50
COC(=O)N1CCC(c2nccnc2O[C@H]2C[C@@H](Nc3nc4ccccc4s3)C2)CC1    8.37
CC(=O)N1CCN(c2nccnc2O[C@H]2C[C@@H](Nc3nc4ccccc4s3)C2)CC1    8.03
O[C@@H]1CCN(c2nccnc2O[C@H]2C[C@@H](Nc3nc4ccccc4s3)C2)C1    7.85
O[C@H]1CCN(c2nccnc2O[C@H]2C[C@@H](Nc3nc4ccccc4s3)C2)C1    7.76
CC1CCCN(c2nccnc2O[C@H]2C[C@@H](Nc3nc4ccccc4s3)C2)C1 (some centres not stated)    7.53
Cc1cc(-c2nccnc2O[C@H]2C[C@@H](Nc3nc4ccccc4s3)C2)ccn1    7.69
CN1CCN(c2nccnc2O[C@H]2C[C@@H](Nc3nc4ccccc4s3)C2)CC1    6.91
Cc1ccc(-c2nccnc2O[C@H]2C[C@@H](Nc3nc4cc(F)ccc4s3)C2)cn1    7.71
N#CC1CCN(c2cccnc2O[C@H]2C[C@@H](Nc3nc4ccccc4s3)C2)CC1    8.90
c1cnc(O[C@H]2C[C@@H](Nc3nc4ccccc4[nH]3)C2)c(C2CCOCC2)c1    8.82
N#Cc1ccc(-c2cccnc2O[C@H]2C[C@H](Nc3nc4ccccc4s3)C2)cn1    8.53
Cc1cnccc1-c1nccnc1O[C@H]1C[C@@H](Nc2nc3ccccc3s2)C1    8.37
Cc1ncc(-c2nccnc2O[C@H]2C[C@@H](Nc3nc4ccccc4s3)C2)cn1    8.49
